Study target: cAMP-dependent protein kinase catalytic subunit alpha (Homo sapiens) (UniProt P17612)
Label Criterion not met if ΔTm falls below 1 °C; label Criterion met in every other case.

Check out these entries, answers already filled in.
Prompt: Decide: is the reported value of ΔTm for Cc1cc(Nc2nc(-c3ccccc3)nc3ccccc23)n[nH]1 equal to or greater than 1 °C?
Completion: Criterion met

Prompt: Decide: is the reported value of ΔTm for O=C(O)/C=C/c1cc(CO)ccc1CO equal to or greater than 1 °C?
Completion: Criterion not met

Prompt: Decide: is the reported value of ΔTm for O=C1Nc2ccccc2/C1=C\c1ccc[nH]1 equal to or greater than 1 °C?
Completion: Criterion met

New cases:
Prompt: Decide: is the reported value of ΔTm for Nc1n[nH]c2nc3ccccc3nc12 [QUINOXALINE1] equal to or greater than 1 °C?
Completion: Criterion not met

Prompt: Decide: is the reported value of ΔTm for Nc1nccc(-c2c(-c3ccc(F)cc3)ncn2C2CCNCC2)n1 equal to or greater than 1 °C?
Completion: Criterion not met

Prompt: Decide: is the reported value of ΔTm for CC(C)(C)n1nc(-c2cccc3ccccc23)c2c(N)ncnc21 equal to or greater than 1 °C?
Completion: Criterion met

Prompt: Decide: is the reported value of ΔTm for O=Nc1c(-c2c(O)[nH]c3ccccc23)[nH]c2ccccc12 equal to or greater than 1 °C?
Completion: Criterion met

Prompt: Decide: is the reported value of ΔTm for NC(=O)c1ccc2[nH]c(-c3ccc(Oc4ccc(Cl)cc4)cc3)nc2c1 equal to or greater than 1 °C?
Completion: Criterion not met

---

Measurement record for Serine/threonine-protein kinase pim-1 (Homo sapiens) (UniProt P11309); quantity recorded: ΔTm.
Give bare numbers, in °C.

Prompt: Look up ΔTm: O=c1c2ccccc2[nH]c(=S)n1CCN1CCC(=C(c2ccc(F)cc2)c2ccc(F)cc2)CC1 [DIACYLGLYCEROL KINASE INHIBITOR II]
Completion: 0

Prompt: Look up ΔTm: Brc1c(Br)c(Br)c2[nH]nnc2c1Br [TETRABROMOBENZOTRIAZOLE]
Completion: 3.7

Prompt: Look up ΔTm: Cc1nc2sccn2c(=O)c1CCN1CCC(=C(c2ccccc2)c2ccc(F)cc2)CC1
Completion: 6.6

Prompt: Look up ΔTm: O=C1Cc2c([nH]c3ccc(Br)cc23)-c2ccccc2N1 [KENPAULLONE]
Completion: 2.6

Prompt: Look up ΔTm: CC(C)(C)n1nc(-c2ccc(Cl)cc2)c2c(N)ncnc21
Completion: 0.1

I would be grateful if you could provide ΔTm for each of the following entries.
1. O=c1ccc2ccc(O)c(O)c2o1 [DAPHNETIN]
2. C=CNC#N
3. CN1CCc2[nH]c(=S)c(C#N)c(-c3cccs3)c2C1
4. C[C@@H]1C[C@H]2O[C@@H]2/C=C\C=C\C(=O)Cc2c(Cl)c(O)cc(O)c2C(=O)O1 [RADICICOL]
5. Cc1ccc(NC(=O)c2ccc(CN3CCN(C)CC3)cc2)cc1Nc1nccc(-c2cccnc2)n1

Completion:
0.2
0.1
1.4
-0.1
-0.1

---

Field: ΔTm. Provide a value for each of the molecules that follow.
Study target: Serine/threonine-protein kinase pim-3 (Homo sapiens) (UniProt Q86V86)
Numeric answer plus unit only.

Prompt: Look up ΔTm: CN(C)C[C@@H]1CCn2cc(c3ccccc32)C2=C(C(=O)NC2=O)c2cn(c3ccccc23)CCO1
Completion: 5.8 °C

Prompt: Look up ΔTm: O=Nc1c(-c2c(O)[nH]c3ccccc23)[nH]c2ccccc12
Completion: 6.4 °C

Prompt: Look up ΔTm: O=C1Nc2ccc(I)cc2/C1=C1/Nc2ccccc2/C1=N\O
Completion: 6.3 °C

Prompt: Look up ΔTm: O=C1c2ccccc2-[n+]2ccc3c([nH]c4ccccc43)c21 [FASCAPLYSIN CHLORIDE]
Completion: 0 °C

Prompt: Look up ΔTm: N=C(N)NCCNS(=O)(=O)c1cccc2cnccc12
Completion: 0.8 °C

I would be grateful if you could provide ΔTm for each of the following entries.
1. O=C1NC(=O)c2c1c1c3ccccc3[nH]c1n1cncc21 [ISOGRANULATIMIDE]
2. NCCNc1ncc(C(N)=O)c(Nc2cccc(C(F)(F)F)c2)n1

Completion:
1. 8.8 °C
2. 1.1 °C

I would be grateful if you could provide ΔTm for each of the following entries.
1. O=C(O)c1cc(NCc2cc(O)ccc2O)ccc1O
2. N#C/C(=C(/N)Sc1ccc(N)cc1)c1ccccc1C(F)(F)F
3. O=C(O)Cc1ccc(O)c([N+](=O)[O-])c1

Completion:
["-0.2 °C", "0.8 °C", "0.1 °C"]

Sourced from ChEMBL document CHEMBL1145498
